Test: Equieffective molar ratio(EMR) to that of the dequalinium, causing 50% inhibition of AHP(action potential).
Assay type: functional
Quantity: EMR

[[record]]
compound = "Cc1cc(N)c2ccccc2[n+]1CCCCCCCCCC[n+]1c(C)cc(N)c2ccccc21.[Cl-].[Cl-] [DEQUALINIUM CHLORIDE]"
relation = "="
assay_result = 1

[[record]]
compound = "Nc1c2c([n+](CCCCCCCCCC[n+]3c4c(c(N)c5ccccc53)CCCC4)c3ccccc13)CCCC2"
relation = "="
assay_result = 0.9

[[record]]
compound = "CN(C)c1cc[n+](CCCCCCCCCC[n+]2ccc(N(C)C)c3ccccc32)c2ccccc12"
relation = "="
assay_result = 1.4

[[record]]
compound = "Cc1cc[n+](CCCCCCCCCC[n+]2ccc(C)c3ccccc32)c2ccccc12"
relation = "="
assay_result = 26

[[record]]
compound = "[O-]c1cc[n+](CCCCCCCCCC[n+]2ccc([O-])c3ccccc32)c2ccccc12"
relation = ">"
assay_result = 10

[[record]]
compound = "Nc1cc[n+](CCCCCCCCCC[n+]2ccc(N)c3ccccc32)c2ccccc12"
relation = "="
assay_result = 1.3

[[record]]
compound = "c1ccc(Oc2cc[n+](CCCCCCCCCC[n+]3ccc(Oc4ccccc4)c4ccccc43)c3ccccc23)cc1"
relation = "="
assay_result = 6.5

[[record]]
compound = "CN(c1ccccc1)c1cc[n+](CCCCCCCCCC[n+]2ccc(N(C)c3ccccc3)c3ccccc32)c2ccccc12"
relation = "="
assay_result = 1.7

[[record]]
compound = "c1ccc(CNc2cc[n+](CCCCCCCCCC[n+]3ccc(NCc4ccccc4)c4ccccc43)c3ccccc23)cc1"
relation = "="
assay_result = 0.7

[[record]]
compound = "c1ccc(Nc2cc[n+](CCCCCCCCCC[n+]3ccc(Nc4ccccc4)c4ccccc43)c3ccccc23)cc1"
relation = "="
assay_result = 3.4

[[record]]
compound = "Nc1ccc2c(NCc3ccccc3)cc[n+](CCCCCCCCCC[n+]3ccc(NCc4ccccc4)c4ccc(N)cc43)c2c1"
relation = "="
assay_result = 0.9

[[record]]
compound = "c1ccc2c(c1)ccc[n+]2CCCCCCCCCC[n+]1cccc2ccccc21"
relation = "="
assay_result = 15

[[record]]
compound = "COc1cc(OC)c(CNc2cc[n+](CCCCCCCCCC[n+]3ccc(NCc4c(OC)cc(OC)cc4OC)c4ccccc43)c3ccccc23)c(OC)c1"
relation = "="
assay_result = 1

[[record]]
compound = "CC(=O)Nc1cc[n+](CCCCCCCCCC[n+]2ccc(NC(C)=O)c3ccccc32)c2ccccc12"
relation = "="
assay_result = 5.5

